- Test system: NOMO1
- PROTOCOL_SUMMARY: cell viability relative to DMSO control; higher = less cytotoxic
- MEASUREMENT_SETUP: HPLM + 10% dialyzed FBS; 48 h; 46.1 µM
Label key: satisfied means cell viability under 20%; not satisfied means cell viability of 20% or more.

Known results for compounds:
- COMPOUND: "O=C1Nc2ccc(I)cc2/C1=C/c1cc(Br)c(O)c(Br)c1"
  DISCRETE_LABEL: "not satisfied"
- COMPOUND: "Cc1[nH]c(/C=C2\\C(=O)Nc3ccccc32)c(C)c1CCC(=O)O"
  DISCRETE_LABEL: "not satisfied"
- COMPOUND: "CN1CCCC(CC1)N2\\N=C(CC3=CC=C(Cl)C=C3)/C4=C(C=CC=C4)C2=O (centres undefined)"
  DISCRETE_LABEL: "not satisfied"

Does this compound meet the criterion cell viability < 20%? `O=C(Nc1ncc(SCCN2CCCC2)s1)[C@]1(c2ccc([S+](=O)([O-])C3CC3)cc2)C[C@H]1C1CCCCC1`
satisfied

Does this compound meet the criterion cell viability < 20%? `COc1ccc(Nc2nccc(NCCO)n2)cc1`
not satisfied
